Molecular target: T1, CRBN, Q96SW2;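 note: pooled lentiviral library of zinc finger degron-EGFP fusions in mCherry-positive Jurkat cells, FACS-sorted after compound exposure, with degron abundance counted by next-generation sequencing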
T1 chain: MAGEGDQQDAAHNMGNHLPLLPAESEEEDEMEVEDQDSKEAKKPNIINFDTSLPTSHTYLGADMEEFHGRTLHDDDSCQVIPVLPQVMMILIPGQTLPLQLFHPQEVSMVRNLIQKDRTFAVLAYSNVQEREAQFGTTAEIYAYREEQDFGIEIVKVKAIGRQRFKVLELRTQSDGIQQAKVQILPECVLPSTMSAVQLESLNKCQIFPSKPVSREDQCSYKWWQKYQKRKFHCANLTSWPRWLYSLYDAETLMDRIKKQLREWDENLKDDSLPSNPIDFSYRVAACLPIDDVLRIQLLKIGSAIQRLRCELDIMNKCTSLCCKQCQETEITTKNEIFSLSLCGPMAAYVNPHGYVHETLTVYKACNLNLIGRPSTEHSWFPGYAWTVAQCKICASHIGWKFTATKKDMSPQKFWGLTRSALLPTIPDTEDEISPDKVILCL
Assay: log2 fold change of degron read counts, EGFP-low vs EGFP+ sorted cells (limma voom), compound-induced degradation; higher = more compound-induced degradation of the degron-EGFP fusion; degrons are variants of IKZF1/3 zinc finger 2; compound dose not given here
Conditions: Jurkat; 18 h; compound: compound 19 (5-tert-butyl-thalidomide)
Over roughly 8,300 sequences, “log2 fold change of degron read counts, EGFP-low vs EGFP+ sorted cells (limma voom), compound-induced degradation” has its median near -1.1; the highest 2% begin near 3.2. Many of the other results were omitted from the sample, so the highest values are more common in it than they were.
measuredProperty: log2 fold change of degron read counts
Give bare numbers.

1. FWCDVCGANFTQKGNLLRHIKL [46F_47W_49D_50V_52G_53A_54N_55F_67L_, Q9UKT9]
1.91
2. FVCDVCGANFTQKGNLLRHIKL [46F_47V_49D_50V_52G_53A_54N_55F_67L_, Q9UKT9]
-1.78
3. FECNVCGANFTQKGNLLRHIKL [46F_47E_49N_50V_52G_53A_54N_55F_67L_, Q9UKT9]
-2.58
4. FYCNVCGANFTQKGNLLRHIKL [46F_47Y_49N_50V_52G_53A_54N_55F_67L_, Q9UKT9]
0.97
5. FFCPVCGANFTQKGNLLRHIKL [46F_47F_49P_50V_52G_53A_54N_55F_67L_, Q9UKT9]
2.53
6. FWCNVCGANFTQKGNLLRHIKL [46F_47W_49N_50V_52G_53A_54N_55F_67L_, Q9UKT9]
1.2

Please look up its log2 fold change of degron read counts: FICPVCGANFTQKGNLLRHIKL [46F_47I_49P_50V_52G_53A_54N_55F_67L_, Q9UKT9]
-1.07
